test: Metabolism of leflunomide in the test sample (mononuclear cell fraction), HPLC
Type: in vitro ADME, human
conditions used: human, mononuclear cells; mononuclear cell fraction, 37° C., HPLC; read-out: half life of metabolism of leflunomide to its metabolites (converted)
property label: half-life

Problem: Given the compound Cc1oncc1C(=O)Nc1ccc(C(F)(F)F)cc1 [Leflunomide] , what is its reported half-life?
Solution: ~600 min
